- Test system: XF498
- experiment.summary: NCI tumour cell line growth inhibition, 48 h
Calls of active or inactive are those of the source. No stated cut-off is given here; in the data, active = GI50 up to about 1.1 µM and inactive = higher.
Reply using exactly one outcome from t for active, f for inactive

# example entries with known answers
>>> label_class("C1=CC2SSSC2C1 (stereo not given)")
"f"
>>> label_class("O=C(CC1C(=O)c2ccccc2C1=C1C(=O)c2ccccc2C1=O)c1ccccc1 (stereo not given)")
"f"
>>> label_class("CCN(CC)CCC(=O)N1C/C(=C/c2ccccc2)C(=O)/C(=C\\c2ccccc2)C1")
"f"
>>> label_class("CC(C(=O)O)c1cnn(-c2ccccc2)c1-n1cccc1 (stereo not given)")
"f"
>>> label_class("O=c1/c(=C/c2ccc3c(c2)OCO3)sc2nnc(-c3ccco3)n12")
"f"

### Prompt Hey, what did the test say about COc1ccc(C[P+]2(c3ccccc3)CCCCC2)cc1.O=[N+]([O-])c1ccc(C[P+]2(c3ccccc3)CCCCC2)cc1.[O-][Cl+3]([O-])([O-])[O-].[O-][Cl+3]([O-])([O-])[O-] ?
### Response f

### Prompt Okay, and CCOC(=O)/C(O)=C(/C(=O)OC)c1ccc(Cl)cc1 ?
### Response f

### Prompt Can you handle COc1ccc(/C=C\c2cc(OC)c(OC)c(OC)c2)cc1OC(=O)NCCN(C)C next?
### Response t

### Prompt Same question, O=C(Nc1ccc(Cl)cc1)C1C(=O)C(=O)N(c2ccc(Cl)cc2)C1=O (stereo not given) this time
### Response f

### Prompt What would you report for CCOC(=O)C1(C)CCC(C(=O)OC)C1=O (stereo not given) ?
### Response f
